Target: hCXCR4 (Homo sapiens)
Experiment: Ca2+ mobilization assay, U87.CD4.CXCR4 cells, CXCL12-induced
Assay type: cell-based
Design: expressed in transfected cells; host or cells: U87.CD4.CXCR4
Details: antagonism of CXCL12 response
pIC50: −log10 of the molar value.
RECORDED_ENDPOINT: pIC50

Exam item: Look up pIC50 for this molecule: CCc1ccn2ccnc2c1N1CCCN(C(CC(N)=O)C2CCN(C(=O)C3CC4CCC3O4)CC2)CC1 (stereo not shown) [compound 18a]
Marked response: < 4.40

* * *

Target: hACKR3 (Homo sapiens, UniProt P25106)
Sequence (P25106 whole entry): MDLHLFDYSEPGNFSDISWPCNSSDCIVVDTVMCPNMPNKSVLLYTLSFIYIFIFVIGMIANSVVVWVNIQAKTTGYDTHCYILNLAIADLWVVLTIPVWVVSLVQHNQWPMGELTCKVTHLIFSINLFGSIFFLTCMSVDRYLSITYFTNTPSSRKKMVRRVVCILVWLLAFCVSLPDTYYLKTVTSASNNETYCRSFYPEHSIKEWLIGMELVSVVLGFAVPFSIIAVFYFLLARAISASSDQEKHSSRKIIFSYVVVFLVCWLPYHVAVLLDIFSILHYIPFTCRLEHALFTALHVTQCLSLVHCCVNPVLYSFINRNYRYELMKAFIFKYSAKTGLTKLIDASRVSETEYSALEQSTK
Test: β-arrestin2 recruitment assay (PathHunter CHO-K1 CXCR7 β-arrestin cell line)
Format: cell-based
Design: host or cells: CHO-K1 (PathHunter CXCR7 β-arrestin cell line)
Details: mean ± SD of two independent experiments, read-out: EC50 β-arrestin2 recruitment
RECORDED_ENDPOINT: pEC50
Conceptually, pEC50 converts a concentration in mol/L into minus its log10.

Exam item: Look up pEC50 for this compound: CCc1ccn2ccnc2c1N1CCCN(C(CC(N)=O)C2CCN(C(=O)C3CC4CCC3O4)CC2)CC1 (stereo not shown) [compound 18a]
Marked response: 8.50

* * *

Test: Mouse plasma pharmacokinetics after subcutaneous administration
Type: in vivo
Details: mouse, sc; male C57BL/6 mice, 30 mg/kg subcutaneous, plasma; mean ± SD, n=3
RECORDED_ENDPOINT: Cmax

Exam item: Look up Cmax for this molecule: CCc1ccn2ccnc2c1N1CCCN(C(CC(N)=O)C2CCN(C(=O)C3CC4CCC3O4)CC2)CC1 (stereo not shown) [compound 18a]
Marked response: 6120 ng/mL

* * *

Assay: Mouse plasma pharmacokinetics after subcutaneous administration
Type: in vivo
Settings: mouse, sc; male C57BL/6 mice, 30 mg/kg subcutaneous, plasma
RECORDED_ENDPOINT: half-life (h)
Express the result in h but write the number alone.

Exam item: Look up half-life for this compound: CCc1ccn2ccnc2c1N1CCCN(C(CC(N)=O)C2CCN(C(=O)C3CC4CCC3O4)CC2)CC1 (stereo not shown) [compound 18a]
Marked response: 5.2

* * *

Molecular target: hCCR5 (Homo sapiens, UniProt P51681)
Sequence (P51681 whole entry): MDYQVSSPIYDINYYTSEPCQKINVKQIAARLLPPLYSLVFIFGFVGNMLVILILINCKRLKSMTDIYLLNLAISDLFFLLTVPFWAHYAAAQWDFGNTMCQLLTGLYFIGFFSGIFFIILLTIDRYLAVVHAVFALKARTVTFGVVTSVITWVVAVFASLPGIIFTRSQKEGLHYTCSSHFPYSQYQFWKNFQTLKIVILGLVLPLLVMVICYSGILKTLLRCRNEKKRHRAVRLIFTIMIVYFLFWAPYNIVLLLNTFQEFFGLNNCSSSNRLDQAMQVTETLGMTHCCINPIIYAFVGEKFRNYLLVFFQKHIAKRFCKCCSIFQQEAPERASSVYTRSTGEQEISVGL
Assay: Ca2+ mobilization assay, U87.CD4.CCR5 cells, CCL5-induced
Conditions: antagonism of CCL5 response
Protocol: The calcium (Ca^2+) mobilization assay was described in detail before. […] Fluctuations in intracellular Ca^2+ levels were measured in real time by the FLIPR Tetra® device (Molecular Devices) in all 96 wells simultaneously. The response (Relative Light Units, RLUs) over baseline was calculated (ScreenWorks 4.0® software, Molecular Devices) by dividing the RLUs by a base line value measured just before addition of CXCL12 or CCL5, respectively. […]
RECORDED_ENDPOINT: IC50

Exam item: Look up IC50 for this molecule: CCc1ccn2ccnc2c1N1CCCN(C(CC(N)=O)C2CCN(C(=O)C3CC4CCC3O4)CC2)CC1 (stereo not shown) [compound 18a]
Marked response: > 40 µM

* * *

Assay: Mouse plasma pharmacokinetics after subcutaneous administration
Type: in vivo
Settings: mouse, sc; male C57BL/6 mice, 30 mg/kg subcutaneous, plasma
RECORDED_ENDPOINT: AUC (ng·h/mL)
Express the result in ng·h/mL but write the number alone.

Exam item: Look up AUC for this compound: CCc1ccn2ccnc2c1N1CCCN(C(CC(N)=O)C2CCN(C(=O)C3CC4CCC3O4)CC2)CC1 (stereo not shown) [compound 18a]
Marked response: 6700

* * *

Target: hCXCR4 (Homo sapiens, UniProt P61073)
Sequence (P61073 whole entry): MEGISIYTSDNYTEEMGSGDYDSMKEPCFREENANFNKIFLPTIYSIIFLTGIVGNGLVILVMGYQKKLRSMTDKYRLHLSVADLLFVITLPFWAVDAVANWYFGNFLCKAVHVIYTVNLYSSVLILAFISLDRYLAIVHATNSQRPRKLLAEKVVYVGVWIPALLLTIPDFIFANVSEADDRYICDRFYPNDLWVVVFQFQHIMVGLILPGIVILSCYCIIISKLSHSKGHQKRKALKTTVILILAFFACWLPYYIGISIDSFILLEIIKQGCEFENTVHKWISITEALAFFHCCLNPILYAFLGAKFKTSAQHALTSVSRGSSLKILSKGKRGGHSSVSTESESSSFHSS
Experiment: CXCL12^AF647 competition binding, Jurkat cells
RECORDED_ENDPOINT: IC50

Exam item: Test system hCXCR4 (Homo sapiens, UniProt P61073); read-out IC50; what value for CCc1ccn2ccnc2c1N1CCCN(C(CC(N)=O)C2CCN(C(=O)C3CC4CCC3O4)CC2)CC1 (stereo not shown) [compound 18a] ?
Marked response: > 4 µM
